Reported viability values are given for each entry in this list.
Test: SK-BR-3 cell growth inhibitors, pilot screen, 24 h, human (AID 572);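 note: compound exposure lasted between 18 and 24 h rather than exactly 24 h; 100% = carrier-treated control wells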
Details: SK-BR-3 viability, CellTiter-Glo luminescence, at 10 µM, active compounds read low
The reply should be a number in %, with the unit left off.

# example entries with known answers
Compound	Reading Unit	Value Observed
Cc1c(Cl)cccc1Nc1ccccc1C(=O)O	%	108
CC(C)NC(=O)Nc1cccs1	%	115
Cc1cccc2cc(CN(Cc3nnnn3C3CCCC3)C3CCCCC3)c(=O)[nH]c12	%	84.5
CCc1noc(C)c1C(=O)NCCc1ccc(OC)c(OC)c1	%	87
CCN(CC)CCOC(=O)C(c1ccccc1)c1ccccc1	%	81
CN1[C@@H](CC(=O)c2ccccc2)CCC[C@H]1C[C@H](O)c1ccccc1	%	63

Lookup: Data request, read-out viability, for Cc1cccc(OCC(=O)Nc2cc(C)ccc2O)c1
Found: 105

Lookup: Data request, read-out viability, for CCN(CC)c1ccc2c(C)c(-c3ccc(N)cc3)c(=O)oc2c1
Found: 96.5

Lookup: Data request, read-out viability, for CN1CCN(c2nc3c(c(=O)n(C)c(=O)n3C)n2Cc2cccc3ccccc23)CC1
Found: 129

Lookup: Data request, read-out viability, for CN(C)CCCN1c2ccccc2Sc2ccc(Cl)cc21
Found: 71

Lookup: Data request, read-out viability, for Cc1cc(C)n(Cc2cc(C)c(Cn3nc(C)cc3C)cc2C)n1
Found: 99

Lookup: Data request, read-out viability, for COC1CCCCC1NS(=O)(=O)c1ccccc1 (configuration not stated)
Found: 106
